# Tested on: KAI3 (IL-2 2.5 ng/mL)
# Protocol Description: percent inhibition of viability; higher = more inhibition
# Experimental Context: 72 h; 100 nM
Experimental Readout: percent inhibition of viability (%)

- COc1ncc(-c2ccc3nccc(-c4ccnnc4)c3c2)cc1NS(=O)(=O)c1ccc(F)cc1F [Omipalisib] (max concentration tested 1000 nM): 35.5
- C=CC(=O)Nc1cc2c(Nc3ccc(F)c(Cl)c3)ncnc2cc1OCCCN1CCOCC1 [Canertinib] (max concentration tested 10000 nM): 3.26
- Cc1c2oc3c(C)ccc(C(=O)N[C@@H]4C(=O)N[C@H](C(C)C)C(=O)N5CCC[C@H]5C(=O)N(C)CC(=O)N(C)[C@@H](C(C)C)C(=O)O[C@@H]4C)c3nc-2c(C(=O)N[C@@H]2C(=O)N[C@H](C(C)C)C(=O)N3CCC[C@H]3C(=O)N(C)CC(=O)N(C)[C@@H](C(C)C)C(=O)O[C@@H]2C)c(N)c1=O [Dactinomycin] (max concentration tested 1000 nM): 103
- COc1cc2ncnc(Nc3ccc(F)c(Cl)c3)c2cc1OCCCN1CCOCC1 [Gefitinib] (max concentration tested 10000 nM): -4.64
- COc1cc(Nc2ncc(F)c(Nc3ccc4c(n3)NC(=O)C(C)(C)O4)n2)cc(OC)c1OC [Tamatinib] (max concentration tested 10000 nM): 12.3
- NC(=O)c1ccc(I)c([N+](=O)[O-])c1 [Iniparib] (max concentration tested 10000 nM): 12.9
- O=C(O)c1ccc(O)c2ncccc12 [IOX-1] (max concentration tested 100000 nM): -1.76
- CCN(CC)C(=S)SSC(=S)N(CC)CC [Disulfiram] (max concentration tested 100000 nM): -5.96
- Cc1[nH]c2ccccc2c1CCNCc1ccc(/C=C/C(=O)NO)cc1 [Panobinostat] (max concentration tested 1000 nM): 101
- CN(c1ncccc1CNc1nc(Nc2ccc3c(c2)CC(=O)N3)ncc1C(F)(F)F)S(C)(=O)=O (max concentration tested 10000 nM): -1.99

---

Catalogue of percent inhibition of viability values
# Tested on: YT (IL-2 2.5 ng/mL)
# Protocol Description: percent inhibition of viability; higher = more inhibition
# Experimental Context: 72 h; 1000 nM
Experimental Readout: percent inhibition of viability

- NC(=O)c1ccc(I)c([N+](=O)[O-])c1 [Iniparib] (max concentration tested 10000 nM): 6.7%
- COc1ccc(C[C@H](NC(=O)[C@H](C)NC(=O)CN2CCOCC2)C(=O)N[C@@H](Cc2ccccc2)C(=O)C2(C)CO2)cc1 (stereo in doubt) [ONX-0914] (max concentration tested 10000 nM): 104%
- O=C(/C=C/c1cccnc1)NCCCCC1CCN(C(=O)c2ccccc2)CC1 [Daporinad] (max concentration tested 1000 nM): 109%
- N#CC(c1ccnc(OCc2ccc(CN3CCOCC3)cc2)n1)c1nc2ccccc2s1 (centres undefined) [Bentamapimod] (max concentration tested 10000 nM): 13.5%

---

# System: normal NK cells expanded with K562-aAPC
# Protocol Description: percent inhibition of viability; higher = more inhibition
# Experimental Context: 72 h; IL-2 2.5 ng/mL; 1000 nM
Sorting guide: entries reporting percent inhibition of viability beneath 30% go in the rule met pile, the rest go in the rule not met pile.

* N#CC(c1ccnc(OCc2ccc(CN3CCOCC3)cc2)n1)c1nc2ccccc2s1 (stereo unspecified) [Bentamapimod] (max concentration tested 10000 nM) | rule met
* CC(=O)c1c(C)c2cnc(Nc3ccc(N4CCNCC4)cn3)nc2n(C2CCCC2)c1=O [Palbociclib] (max concentration tested 10000 nM) | rule met
* COc1cc(Nc2ncc3c(n2)-c2ccc(Cl)cc2C(c2c(F)cccc2OC)=NC3)ccc1C(=O)O [Alisertib] (max concentration tested 10000 nM) | rule not met
* O=C1NC(=O)/C(=C/c2ccc3nccc(-c4ccncc4)c3c2)S1 (max concentration tested 10000 nM) | rule met
* C[C@@H]1C[C@H]2O[C@@H]2/C=C\C=C\C(=O)Cc2c(Cl)c(O)cc(O)c2C(=O)O1 [Radicicol] (max concentration tested 10000 nM) | rule not met
* COc1cc2c(cc1O)CC[C@@H]1[C@@H]2CC[C@]2(C)[C@@H](O)CC[C@@H]12 [2-methoxyestradiol] (max concentration tested 10000 nM) | rule met

---

# System: KHYG-1 (IL-2 2.5 ng/mL)
# Protocol Description: relative IC50 (inflection point of fitted viability curve, relative to fitted max inhibition); higher = less sensitive
# Experimental Context: 72 h
Entries and their relative IC50
Experimental Readout: relative IC50 (nM)

* O=C(c1ccc(/C=C/c2n[nH]c3ccccc23)cc1)N1CCNCC1 [KW-2449] | 807
* COc1ncc(-c2ccc3nccc(-c4ccnnc4)c3c2)cc1NS(=O)(=O)c1ccc(F)cc1F [Omipalisib] | 114
* Cn1cc(C2=Nc3cc(NC(=O)C(N)C4CCCCC4)cc4c3C2=CNNC4=O)cn1 (centres undefined) | 134
* Cn1cnc2c(F)c(Nc3ccc(Br)cc3Cl)c(C(=O)NOCCO)cc21 [Selumetinib] | 606
* S=c1[nH]cnc2nc[nH]c12 [Mercaptopurine] | 1420
* COc1cc(O)c2c(c1)/C=C/C[C@H](O)[C@H](O)C(=O)/C=C\C[C@H](C)OC2=O [(5Z)-7-Oxozeaenol] | 480
* O=C(c1ccc(F)c(F)c1Nc1ccc(I)cc1F)N1CC(O)([C@@H]2CCCCN2)C1 [Cobimetinib] | 123
* O=C(Nc1ccncc1)C(=O)c1cn(Cc2ccc(Cl)cc2)c2ccccc12 [Indibulin] | 103
* CC(=O)c1c(C)c2cnc(Nc3ccc(N4CCNCC4)cn3)nc2n(C2CCCC2)c1=O [Palbociclib] | 279

---

# Test system: normal primary NK cells, pool 2 (3 donors) (IL-2 2.5 ng/mL)
# Protocol Description: percent inhibition of viability; higher = more inhibition
# Experimental Context: 72 h; 10 nM
Experimental Readout: percent inhibition of viability (%)

• O=C(/C=C/c1cccnc1)NCCCCC1CCN(C(=O)c2ccccc2)CC1 [Daporinad] (max concentration tested 1000 nM) = 96.2
• Cc1cc(C(C)Nc2ccccc2)c2nc(N3CCOCC3)cc(=O)n2c1 (stereo unspecified) [TGX-221] (max concentration tested 10000 nM) = -10.3
• CN(C)c1nc(N(C)C)nc(N(C)C)n1 [Altretamine] (max concentration tested 10000 nM) = -3.94
• CC(C)Oc1ccc(C(=O)N[C@H](CNC(=O)CN(C)C)Cc2ccc(-c3cn4cccc([C@H](C)O)c4n3)cc2)cc1Cl (max concentration tested 10000 nM) = 7.38
• COC(=O)c1ccc2c(c1)NC(=O)/C2=C(\Nc1ccc(N(C)C(=O)CN2CCN(C)CC2)cc1)c1ccccc1 [Nintedanib] (max concentration tested 10000 nM) = -1.56
• COc1cc(Nc2ncc3c(n2)-c2ccc(Cl)cc2C(c2c(F)cccc2OC)=NC3)ccc1C(=O)O [Alisertib] (max concentration tested 10000 nM) = -4.51

---

The following molecules are shown together with reported percent inhibition of viability values.
# Tested on: KHYG-1 (IL-2 2.5 ng/mL)
# Protocol Description: percent inhibition of viability; higher = more inhibition
# Experimental Context: 72 h; 100 nM
Experimental Readout: percent inhibition of viability (%)

* O=NN(CCCl)C(=O)NCCCl [Carmustine] (max concentration tested 10000 nM) | -6.75
* CCCOc1ccn2c(C(C)=O)cc(-c3ccccc3S(C)(=O)=O)c2c1 [GSK2801] (max concentration tested 10000 nM) | -4.5
* COc1cc(O)c2c(c1)/C=C/C[C@H](O)[C@H](O)C(=O)/C=C\C[C@H](C)OC2=O [(5Z)-7-Oxozeaenol] (max concentration tested 10000 nM) | 3.17
* CCn1c(-c2nonc2N)nc2cnc(Oc3cccc(NC(=O)c4ccc(OCCN5CCOCC5)cc4)c3)cc21 (max concentration tested 10000 nM) | 16.6
* N#CC(c1ccnc(OCc2ccc(CN3CCOCC3)cc2)n1)c1nc2ccccc2s1 (stereo not drawn) [Bentamapimod] (max concentration tested 10000 nM) | 4.6
* COc1ncc(-c2ccc3nccc(-c4ccnnc4)c3c2)cc1NS(=O)(=O)c1ccc(F)cc1F [Omipalisib] (max concentration tested 1000 nM) | 40.2
* CS(=O)(=O)CCNCc1ccc(-c2ccc3ncnc(Nc4ccc(OCc5cccc(F)c5)c(Cl)c4)c3c2)o1 [Lapatinib] (max concentration tested 1000 nM) | 0.27
* CO[C@H]1C[C@@H]2CC[C@@H](C)[C@@](O)(O2)C(=O)C(=O)N2CCCC[C@H]2C(=O)O[C@H]([C@H](C)C[C@@H]2CC[C@@H](OC(=O)C(C)(CO)CO)[C@H](OC)C2)CC(=O)[C@H](C)/C=C(\C)[C@@H](O)[C@@H](OC)C(=O)[C@H](C)C[C@H](C)/C=C/C=C/C=C/1C [Temsirolimus] (max concentration tested 100 nM) | 48.8
* COc1cc2c(Nc3ccc(Cl)c(Cl)c3F)ncnc2cc1OC[C@@H]1C[C@@H]2CN(C)C[C@@H]2C1 [XL-647] (max concentration tested 1000 nM) | -1
* CN(c1ncccc1CNc1nc(Nc2ccc3c(c2)CC(=O)N3)ncc1C(F)(F)F)S(C)(=O)=O (max concentration tested 10000 nM) | -1.38
* COc1cc2ncnc(Nc3ccc(F)c(Cl)c3)c2cc1OCCCN1CCOCC1 [Gefitinib] (max concentration tested 10000 nM) | 8.11
* CNC(=O)c1ccc(N2C(=S)N(c3ccc(C#N)c(C(F)(F)F)c3)C(=O)C2(C)C)cc1F [Enzalutamide] (max concentration tested 10000 nM) | -3.55
* O=C(Nc1ccc2[nH]nc(-c3ccncc3)c2c1)[C@@H]1CCN(CC(=O)N2CCN(c3ccc(-c4ncccn4)cc3)CC2)C1 (max concentration tested 10000 nM) | 5.59
* CN(C)c1nc(N(C)C)nc(N(C)C)n1 [Altretamine] (max concentration tested 10000 nM) | -6.09
* CC(=O)NCC(=O)N1[C@@H]2CC[C@H]1c1ccc(Nc3ncc(C(F)(F)F)c(NC4CCC4)n3)cc12 (max concentration tested 10000 nM) | 82.5
* CC1=C(/C=C/C(C)=C/C=C/C(C)=C/C(=O)O)C(C)(C)CCC1 [Tretinoin] (max concentration tested 10000 nM) | 11.5
* Cc1sc2c(c1C)C(c1ccc(Cl)cc1)=N[C@@H](CC(=O)Nc1ccc(O)cc1)c1nnc(C)n1-2 [OTX015] (max concentration tested 10000 nM) | 38.7
* OC[C@H]1O[C@@H](n2cnc3c2N=CNC[C@H]3O)C[C@@H]1O [Pentostatin] (max concentration tested 10000 nM) | 0.86
* Cn1cnc2c(F)c(Nc3ccc(Br)cc3Cl)c(C(=O)NOCCO)cc21 [Selumetinib] (max concentration tested 10000 nM) | 13.7
* COc1cc(Nc2ncc(F)c(Nc3ccc4c(n3)NC(=O)C(C)(C)O4)n2)cc(OC)c1OC [Tamatinib] (max concentration tested 10000 nM) | 6.88
* Cn1cc(C2=Nc3cc(NC(=O)C(N)C4CCCCC4)cc4c3C2=CNNC4=O)cn1 (stereo not drawn) (max concentration tested 10000 nM) | 32.3
* Cc1c2oc3c(C)ccc(C(=O)N[C@@H]4C(=O)N[C@H](C(C)C)C(=O)N5CCC[C@H]5C(=O)N(C)CC(=O)N(C)[C@@H](C(C)C)C(=O)O[C@@H]4C)c3nc-2c(C(=O)N[C@@H]2C(=O)N[C@H](C(C)C)C(=O)N3CCC[C@H]3C(=O)N(C)CC(=O)N(C)[C@@H](C(C)C)C(=O)O[C@@H]2C)c(N)c1=O [Dactinomycin] (max concentration tested 1000 nM) | 106
* Cn1c(=O)c(F)c(Nc2ccc(I)cc2F)c2c(=O)n(C[C@@H](O)CO)cnc21 [TAK-733] (max concentration tested 1000 nM) | 48.8
